- Assay Procedure: Plasma pharmacokinetics
- Format: in vivo, male C57 BL/6 mice
- Condition Info: male, C57BL/6, mouse, plasma; single intravenous 5 mg/kg; read-out: systemic plasma clearance
Measured Property: clearance (mL/min/kg)
I only need the number, in mL/min/kg, no unit after it.

Qu. Dear colleague, I am looking for the recorded clearance of the following molecule: CCN(CC)C(=O)c1cnn2ccc(C3CCN(S(=O)(=O)c4ccc(NC(C)=O)cc4)CC3)cc12
Ans. 30

* * *

- Assay Procedure: Plasma pharmacokinetics
- Type: in vivo, male C57 BL/6 mice
- Condition Info: male, C57BL/6, mouse, plasma, ip; single intraperitoneal 25 mg/kg
Measured Property: Tmax (min)
I only need the number, in min, no unit after it.

Qu. Dear colleague, I am looking for the recorded Tmax of the following compound: CCN(CC)C(=O)c1cnn2ccc(C3CCN(S(=O)(=O)c4ccc(NC(C)=O)cc4)CC3)cc12 [Compound Z271-0326]
Ans. 15

* * *

- Test system: OE33 cell line
- Assay Procedure: Colony formation assay in OE33 cells
- Assay type: cell-based, human
- Condition Info: Homo sapiens, OE33, estimated; FIG. 6C; read-out: EC50 colony formation titration assay
Overview of recorded pEC50 for various molecules
API: returns pEC50 as number; meaning -log10 of concentration in mol/L.

Qu. Dear colleague, I am looking for the recorded pEC50 of the following molecule: CC1CCN(C(=O)c2cnn3ccc(C4CCN(S(=O)(=O)c5ccccc5)CC4)cc23)CC1
Ans. 5.43

New cases:
Qu. Dear colleague, I am looking for the recorded pEC50 of the following molecule: CCN(CC)C(=O)c1cnn2ccc(C3CCN(S(=O)(=O)c4ccc(NC(C)=O)cc4)CC3)cc12
Ans. 5.98

* * *

- Assay Procedure: Plasma pharmacokinetics
- Type: in vivo, male C57 BL/6 mice
- Condition Info: male, C57BL/6, mouse, plasma, ip; single intraperitoneal 100 mg/kg
Measured Property: Tmax (h)
I only need the number, in h, no unit after it.

Qu. Dear colleague, I am looking for the recorded Tmax of the following compound: CCN(CC)C(=O)c1cnn2ccc(C3CCN(S(=O)(=O)c4ccc(NC(C)=O)cc4)CC3)cc12
Ans. 1

* * *

- Assay Procedure: Plasma pharmacokinetics
- Assay type: in vivo, male C57 BL/6 mice
- Condition Info: male, C57BL/6, mouse, plasma; single intravenous 5 mg/kg; read-out: terminal elimination half-life (converted)
Measured Property: half-life (min)
I only need the number, in min, no unit after it.

Qu. Dear colleague, I am looking for the recorded half-life of the following compound: CCN(CC)C(=O)c1cnn2ccc(C3CCN(S(=O)(=O)c4ccc(NC(C)=O)cc4)CC3)cc12
Ans. 13.8

* * *

- Measurement Target: NACK (Mus musculus)
- Sequence (Q571I4 whole entry): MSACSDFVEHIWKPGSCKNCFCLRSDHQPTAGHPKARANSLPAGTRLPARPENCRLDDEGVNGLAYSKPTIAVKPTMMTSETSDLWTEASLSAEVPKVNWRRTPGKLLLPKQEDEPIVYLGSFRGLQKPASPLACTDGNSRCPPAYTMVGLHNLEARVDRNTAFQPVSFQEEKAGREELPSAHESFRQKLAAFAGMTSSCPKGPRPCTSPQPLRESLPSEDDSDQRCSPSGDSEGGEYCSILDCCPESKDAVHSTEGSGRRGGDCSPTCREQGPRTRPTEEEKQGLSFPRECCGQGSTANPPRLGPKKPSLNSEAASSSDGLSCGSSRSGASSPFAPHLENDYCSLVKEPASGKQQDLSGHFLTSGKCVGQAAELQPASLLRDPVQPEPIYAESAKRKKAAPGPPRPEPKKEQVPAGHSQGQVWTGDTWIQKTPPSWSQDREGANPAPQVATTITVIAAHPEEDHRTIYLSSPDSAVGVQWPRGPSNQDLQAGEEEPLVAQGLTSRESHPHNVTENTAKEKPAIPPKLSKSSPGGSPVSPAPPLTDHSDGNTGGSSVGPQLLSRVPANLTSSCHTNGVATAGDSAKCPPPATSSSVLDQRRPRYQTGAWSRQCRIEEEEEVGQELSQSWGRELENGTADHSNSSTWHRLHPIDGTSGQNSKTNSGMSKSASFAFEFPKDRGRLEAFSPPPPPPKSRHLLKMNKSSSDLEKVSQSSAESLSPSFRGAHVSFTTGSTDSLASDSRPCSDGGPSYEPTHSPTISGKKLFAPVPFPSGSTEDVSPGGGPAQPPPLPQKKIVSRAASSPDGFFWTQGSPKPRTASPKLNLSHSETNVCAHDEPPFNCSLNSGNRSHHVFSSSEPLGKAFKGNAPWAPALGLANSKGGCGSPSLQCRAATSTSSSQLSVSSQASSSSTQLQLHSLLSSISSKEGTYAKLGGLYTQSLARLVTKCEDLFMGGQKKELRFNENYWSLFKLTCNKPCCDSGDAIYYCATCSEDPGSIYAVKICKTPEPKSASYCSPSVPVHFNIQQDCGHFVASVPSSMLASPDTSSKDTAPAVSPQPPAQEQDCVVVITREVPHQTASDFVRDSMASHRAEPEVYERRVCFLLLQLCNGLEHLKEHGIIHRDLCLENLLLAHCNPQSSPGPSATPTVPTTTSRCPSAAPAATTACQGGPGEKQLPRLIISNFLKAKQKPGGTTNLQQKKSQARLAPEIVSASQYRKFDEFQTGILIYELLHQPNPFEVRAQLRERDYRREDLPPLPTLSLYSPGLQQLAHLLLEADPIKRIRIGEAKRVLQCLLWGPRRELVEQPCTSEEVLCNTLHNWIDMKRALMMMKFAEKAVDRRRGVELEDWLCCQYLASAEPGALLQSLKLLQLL
- Assay Procedure: Surface plasmon resonance (SPR) binding to GST tagged NACK
- Condition Info: SPR; FIG. 4C; read-out: binding constant
pKd: −log10 of the molar value.
Measured Property: pKd

Qu. Dear colleague, I am looking for the recorded pKd of the following molecule: Nc1ncnc2c1ncn2[C@@H]1O[C@H](COP(=O)(O)OP(=O)(O)NP(=O)(O)O)[C@@H](O)[C@H]1O
Ans. ~5.82

* * *

- Assay Procedure: Maximum tolerated dose in efficacy studies
- Condition Info: mouse, in vivo, ip, 25 mg/kg; 4-week efficacy studies; intraperitoneal
Measured Property: MTD at 4 weeks

Qu. Dear colleague, I am looking for the recorded MTD at 4 weeks of the following compound: CCN(CC)C(=O)c1cnn2ccc(C3CCN(S(=O)(=O)c4ccc(NC(C)=O)cc4)CC3)cc12
Ans. 25 mg/kg
